subject-of-test: T1, wild type monomeric full-length HIV-1 YU-2 gp120 (HIV-1 YU-2, UniProt P35961 32-498)
T1 construct: domain: gp120; also called gp120YU-2; gp120 YU-2
assay: SPR competition: gp120 YU-2 with increasing peptide over immobilised soluble CD4; competitor CD4; CD4 competition column, not 17b competition
Bridges are numbered along the chain shown (N, C = ends). Where no end group is shown, it is not given here. [ ]: non-standard residue; d: D form.
quantity-kind: IC50 (nM)
Record the value in nM, omitting the unit from your answer.

Prompt line: Would you mind telling me what IC50 value was observed for DNI[triazolo‑Pro]WK-NH2 (lactam 1-6; not fully specified) [cPT 18] ?
Response line: 614
